Measured pEC50 by item
TARGET SYSTEM: UniProt P51449
Sequence (P51449 whole entry, the tested form may be a part): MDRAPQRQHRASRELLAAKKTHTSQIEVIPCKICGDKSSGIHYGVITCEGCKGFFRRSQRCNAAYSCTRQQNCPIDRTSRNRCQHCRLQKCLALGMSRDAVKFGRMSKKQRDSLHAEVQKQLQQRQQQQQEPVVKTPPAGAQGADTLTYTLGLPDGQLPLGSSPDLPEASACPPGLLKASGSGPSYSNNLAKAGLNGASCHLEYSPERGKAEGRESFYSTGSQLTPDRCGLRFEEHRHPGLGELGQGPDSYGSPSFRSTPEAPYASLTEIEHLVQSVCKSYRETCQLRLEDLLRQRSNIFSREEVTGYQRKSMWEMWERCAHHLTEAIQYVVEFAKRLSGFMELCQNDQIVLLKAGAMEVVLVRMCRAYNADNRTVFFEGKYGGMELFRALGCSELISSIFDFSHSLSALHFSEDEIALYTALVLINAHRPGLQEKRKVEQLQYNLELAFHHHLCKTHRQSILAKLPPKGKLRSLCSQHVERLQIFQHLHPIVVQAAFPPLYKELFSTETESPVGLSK
PROTOCOL DETAILS: Inverse agonist activity at human RoRc-LBD fusion protein with GST expressed in […] cells assessed as SRC1 coactivator peptide recruitment
Format: functional, cell-based
pEC50: −log10 of the molar value.

- COMPOUND: "O=S(=O)(c1cccc2cccnc12)N1Cc2ccccc2COCC1Cc1ccccc1 (stereo not drawn)"
  pEC50: "> 6.30"
- COMPOUND: "COc1ccccc1S(=O)(=O)N1Cc2ccccc2COCC1Cc1ccccc1 (stereo not drawn)"
  pEC50: "> 6.30"
- COMPOUND: "O=S(=O)(c1cc(F)ccc1OC(F)(F)F)N1Cc2nccnc2-n2ccnc2[C@H]1Cc1ccccc1"
  pEC50: "> 6.30"

Enquiry: Form: Entry = `C/C(=C\c1ccc(C(=O)O)cc1)c1ccc2c(c1)C(C)(C)CCC2(C)C` | System = UniProt P51449 | pEC50 = ____
Return: 5.05

Enquiry: What value of pEC50 on UniProt P51449 does `Cc1c(S(N)(=O)=O)cc(-c2cc(C(C)(C)C)cc(C(C)(C)C)c2)n1CC1CCCCC1` have?
Return: > 6.30
